assay: Membrane permeabilization activity assessed as release of calcein from DOPC liposomes at lipid:compound ratio of => 16 incubated for 30 mins by fluorescence assay; type: ADME; settings: 0.5 h
measured.quantity: Activity

For orientation, consider the following solved cases.
Consider the compound COc1c(O)cc2oc3cc(O)c(CC=C(C)C)c(O)c3c(=O)c2c1CC=C(C)C and give its measured Activity.
< 10%

Query: Activity; subject: CCN(CC)CCCCOc1cc2oc3cc(OCCCCN(CC)CC)c(OC)c(CC=C(C)C)c3c(=O)c2c(O)c1CC=C(C)C
> 70%

Query: Activity; subject: O=c1c2ccc(O)cc2oc2cc(O)cc(O)c12
Not Active

What value of measured Activity is listed for CCN(CC)CCCCOc1ccc2c(=O)c3c(O)cc(OCCCCN(CC)CC)cc3oc2c1 ?
Not Active

Next:
Could you share which Activity value was measured for COc1c(O)cc2oc3cc(O)c(CCC(C)C)c(O)c3c(=O)c2c1CCC(C)C ?
Not Active
